Recorded measurements of -log Kd value, one per entry
# target_or_test_system: HLA-A*02:06 molecule
# measurement_description: flow cytometry, RA2.6 cells
Please respond with just the number, no unit label.

Sample records with -log Kd value:
ALPKIRARV [peptide of SEQ ID NO: 12]    -4.78
LLNPNRQTI [peptide of SEQ ID NO: 23]    -3.53
LAITRKSFI [peptide of SEQ ID NO: 46]    -3.04
AQISAYRTC [peptide of SEQ ID NO: 50]    -4.09

Name the reported -log Kd value value associated with the binder SLVLTWAAL [peptide of SEQ ID NO: 14]
-6.24

Source listed as patent US20250236642A1.
